System: Klebs. pneumoniae
procedure_text: Minimum inhibitory concentration by agar dilution, Klebs. pneumoniae
Format: cell-based
conditions_used: Klebsiella pneumoniae; N.A. (nutrient agar, pH 6.8), 37° C., 18 hours; Table I; read-out: minimum inhibitory concentration (M.I.C.)
# Lookup of reported MIC keyed by entry
Unit µg/mL implied. Number only.

Here is how some compounds turned out for MIC.
[[record]]
compound = "CCn1cc(C(=O)O)c(=O)c2cnc(N3CCN(C)CC3)nc21 [Example V]"
assay_result = 0.4

[[record]]
compound = "CCn1cc(C(=O)O)c(=O)c2cnc(N3CCNCC3)nc21 [Example VIII]"
assay_result = 0.8

[[record]]
compound = "CN1CCN(c2ncc3c(=O)c(C(=O)O)cn(C)c3n2)CC1 [Example X]"
assay_result = 6.2

[[record]]
compound = "CCn1cc(C(=O)O)c(=O)c2cnc(N3CCN(Cc4ccccc4)CC3)nc21 [Example VII]"
assay_result = 0.4

[[record]]
compound = "Cn1cc(C(=O)O)c(=O)c2cnc(N3CCN(CCO)CC3)nc21 [Example XI]"
assay_result = 3.1

[[record]]
compound = "CCn1cc(C(=O)O)c(=O)c2cnc(N3CCN(CCO)CC3)nc21 [Example VI]"
assay_result = 0.4


Next compound, MIC to be filled in.
Complete the entry with MIC for CCn1cc(C(=O)O)c(=O)c2cnc(N3CCC(O)CC3)nc21 [IV]
0.4
